Assay: Half life in rat at 0.5 mg/kg, iv
Assay type: ADME, organism-based
Parameters: dose 0.5 mg/kg, route intravenous
Conditions: in vivo
Property name: half-life (h)

INSERT INTO measurements (chemical_smiles, assay_value) VALUES
  ('CC(C)c1c(NC(=O)Nc2ccc(Cl)cc2)c(=O)n(-c2ccccc2)n1C', 2.78);

* * *

Molecular target: N-formyl peptide receptor 2 (Homo sapiens, UniProt P25090)
Sequence (P25090 whole entry): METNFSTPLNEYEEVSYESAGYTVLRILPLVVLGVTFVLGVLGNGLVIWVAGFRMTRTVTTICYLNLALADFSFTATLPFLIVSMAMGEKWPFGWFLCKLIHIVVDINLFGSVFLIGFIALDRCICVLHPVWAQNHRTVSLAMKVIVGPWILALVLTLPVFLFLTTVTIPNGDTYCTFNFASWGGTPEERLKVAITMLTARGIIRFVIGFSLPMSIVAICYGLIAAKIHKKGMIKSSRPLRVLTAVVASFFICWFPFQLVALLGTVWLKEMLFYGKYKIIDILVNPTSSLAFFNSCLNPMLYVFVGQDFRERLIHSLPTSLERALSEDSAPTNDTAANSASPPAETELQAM
Assay: Activity at human FPRL1-mediated calcium mobilization in CHO cells
Measured log10 of EC50 of individual entries
Property name: log10 of EC50 (log10 of the value in nM)

INSERT INTO results (chemical_smiles, study_target, assay_value) VALUES
  ('Cc1c(NC(=O)Nc2ccc(I)cc2)c(=O)n(-c2ccccc2)n1C', 'N-formyl peptide receptor 2 (Homo sapiens, UniProt P25090)', 1.48),
  ('CSc1ccc(NC(=O)Nc2c(C(C)C)n(C)n(C3=NCCS3)c2=O)cc1', 'N-formyl peptide receptor 2 (Homo sapiens, UniProt P25090)', 3.71),
  ('Cc1ccc(NC(=O)Nc2c(C)n(C)n(-c3ccccc3)c2=O)cc1F', 'N-formyl peptide receptor 2 (Homo sapiens, UniProt P25090)', 2.99),
  ('CC(C)c1c(NC(=O)Nc2ccc(Cl)cc2)c(=O)n(-c2cncnc2)n1C', 'N-formyl peptide receptor 2 (Homo sapiens, UniProt P25090)', 2.40),
  ('CC(C)c1c(NC(=O)Nc2ccc(C(F)(F)F)cc2)c(=O)n(-c2cnc3ccccc3c2)n1C', 'N-formyl peptide receptor 2 (Homo sapiens, UniProt P25090)', 1.64);

* * *

Target: N-formyl peptide receptor 2 (Homo sapiens, UniProt P25090)
Experiment: Activity at human FPRL1-mediated calcium mobilization in CHO cells
pEC50: −log10 of the molar value.
Property name: pEC50

INSERT INTO assay_data (chemical_smiles, property_name, assay_value) VALUES
  ('Cc1cc(NC(=O)Nc2c(C)n(C)n(-c3ccccc3)c2=O)ccc1F', 'pEC50', '< 5.00'),
  ('Cc1c(NC(=O)Nc2nccs2)c(=O)n(-c2ccccc2)n1C', 'pEC50', '< 5.00'),
  ('Cc1c(NC(=O)Nc2ccccc2Cl)c(=O)n(-c2ccccc2)n1C', 'pEC50', '< 5.00'),
  ('Cc1c(NC(=O)Nc2ccccc2)c(=O)n(-c2ccccc2)n1C', 'pEC50', '< 5.00'),
  ('Cc1c(NC(=O)Nc2cccc(Cl)c2)c(=O)n(-c2ccccc2)n1C', 'pEC50', '< 5.00');

meta.source: ChEMBL document CHEMBL1138936
